- Test system: Salmonella enterica subsp. enterica
- assay.protocol: Antimicrobial activity against Salmonella Typhimurium ATCC 14028 after 18 hrs by broth microdilution susceptibility test
- Assay type: functional, Salmonella enterica subsp. enterica serovar Typhimurium
- measurement.conditions: ATCC 14028, 18 h
Starred links: 1 amine or outer side, 2 acyl side, 3 side chain; linkers in the order of their positions; H or OH if unused. Non-standard residues stand in square brackets, D forms with d. Residues, ends and D or L forms follow the SMILES beside them. X1 = N=C(N)NCCN(CC(=O)[*:2])[*:1]
measurement.kind: MIC

Task item: Can you look up the measured MIC of CC[C@H](C)[C@H](NC(=O)[C@H](Cc1ccc(O)cc1)NC(=O)[C@@H](NC(=O)[C@@H]1CCCN1C(=O)[C@H](CCCNC(=N)N)NC(=O)[C@H](CC(N)=O)NC(=O)[C@H](CC(N)=O)NC(=O)CN)C(C)C)C(=O)N1CCC[C@H]1C(=O)N[C@@H](CCC(N)=O)C(=O)N1CCC[C@H]1C(=O)N[C@@H](CCCNC(=N)N)C(=O)N1CCC[C@H]1C(=O)N1CCC[C@H]1C(=O)N[C@@H](Cc1cnc[nH]1)C(=O)N1CCC[C@H]1C(=O)N(CCNC(=N)N)CC(=O)N[C@@H](CC(C)C)C(=O)O (H-GNNRPVYIPQPRPPHP[X1]L-OH) for me?
Reply: > 128 µM

* * *

- Tested on: Salmonella enterica subsp. enterica
- assay.protocol: Antimicrobial activity against Salmonella enteritidis D5 after 18 hrs by broth microdilution susceptibility test
- Assay type: functional, Salmonella enterica subsp. enterica serovar Enteritidis
- measurement.conditions: D5, 18 h
Non-standard residues stand in square brackets, D forms with d. Residues, ends and D or L forms follow the SMILES beside them. NhArg = N=C(N)NCCCCNCC(=O)O
measurement.kind: MIC (µM)
// note: answer is a bare numeric in µM

Task item: Can you look up the measured MIC of CC[C@H](C)[C@H](NC(=O)[C@H](Cc1ccc(O)cc1)NC(=O)[C@@H](NC(=O)[C@@H]1CCCN1C(=O)[C@H](CCCNC(=N)N)NC(=O)[C@H](CC(N)=O)NC(=O)[C@H](CC(N)=O)NC(=O)CN)C(C)C)C(=O)N1CCC[C@H]1C(=O)N[C@@H](CCC(N)=O)C(=O)N1CCC[C@H]1C(=O)N(CCCCNC(=N)N)CC(=O)N1CCC[C@H]1C(=O)N[C@@H](Cc1cnc[nH]1)C(=O)N1CCC[C@H]1C(=O)N[C@@H](CCCNC(=N)N)C(=O)N[C@@H](CC(C)C)C(=O)O (H-GNNRPVYIPQP[NhArg]PHPRL-OH) for me?
Reply: 64

* * *

- Test system: Klebsiella pneumoniae
- assay.protocol: Antimicrobial activity against Klebsiella pneumoniae 22 after 18 hrs by broth microdilution susceptibility test
- Format: functional
- measurement.conditions: Klebsiella pneumoniae, 22, 18 h
Non-standard residues stand in square brackets, D forms with d. Residues, ends and D or L forms follow the SMILES beside them. Gly(N-(CH2)3-guanidino) = N=C(N)NCCCNCC(=O)O; NhArg = N=C(N)NCCCCNCC(=O)O
Give MIC for every item shown.

Task item: Can you look up the measured MIC of CC[C@H](C)[C@H](NC(=O)[C@H](Cc1ccc(O)cc1)NC(=O)[C@@H](NC(=O)[C@@H]1CCCN1C(=O)[C@H](CCCNC(=N)N)NC(=O)[C@H](CC(N)=O)NC(=O)[C@H](CC(N)=O)NC(=O)CN)C(C)C)C(=O)N1CCC[C@H]1C(=O)N[C@@H](CCC(N)=O)C(=O)N1CCC[C@H]1C(=O)N[C@@H](CCCNC(=N)N)C(=O)N1CCC[C@H]1C(=O)N1CCC[C@H]1C(=O)N[C@@H](Cc1cnc[nH]1)C(=O)N1CCC[C@H]1C(=O)N(CCCCNC(=N)N)CC(=O)N[C@@H](CC(C)C)C(=O)O (H-GNNRPVYIPQPRPPHP[NhArg]L-OH) for me?
Reply: > 128 µM

Task item: Now the same for CC[C@H](C)[C@H](NC(=O)[C@H](Cc1ccc(O)cc1)NC(=O)[C@@H](NC(=O)[C@@H]1CCCN1C(=O)[C@H](CCCNC(=N)N)NC(=O)[C@H](CC(N)=O)NC(=O)[C@H](CC(N)=O)NC(=O)CN)C(C)C)C(=O)N1CCC[C@H]1C(=O)N[C@@H](CCC(N)=O)C(=O)N1CCC[C@H]1C(=O)N[C@@H](CCCNC(=N)N)C(=O)N1CCC[C@H]1C(=O)N1CCC[C@H]1C(=O)N[C@@H](Cc1cnc[nH]1)C(=O)N1CCC[C@H]1C(=O)N(CCCNC(=N)N)CC(=O)N[C@@H](CC(C)C)C(=O)O (H-GNNRPVYIPQPRPPHP[Gly(N-(CH2)3-guanidino)]L-OH)
Reply: > 128 µM

* * *

- assay.protocol: Toxicity in human erythrocytes assessed as hemolytic activity at 300 uM after 60 mins
- Format: cell-based, Erythrocyte
- measurement.conditions: read-out: Activity
Starred links: 1 amine or outer side, 2 acyl side, 3 side chain; linkers in the order of their positions; H or OH if unused. Non-standard residues stand in square brackets, D forms with d. Residues, ends and D or L forms follow the SMILES beside them. Gly(N-(CH2)3-guanidino) = N=C(N)NCCCNCC(=O)O; X1 = N=C(N)NCCN(CC(=O)[*:2])[*:1]
measurement.kind: hemolysis at 1 h, 300 µM (%)
// note: answer is a bare numeric in %

Task item: Can you look up the measured hemolysis at 1 h, 300 µM of CC[C@H](C)[C@H](NC(=O)[C@H](Cc1ccc(O)cc1)NC(=O)[C@@H](NC(=O)[C@@H]1CCCN1C(=O)[C@H](CCCNC(=N)N)NC(=O)[C@H](CC(N)=O)NC(=O)[C@H](CC(N)=O)NC(=O)CN)C(C)C)C(=O)N1CCC[C@H]1C(=O)N[C@@H](CCC(N)=O)C(=O)N1CCC[C@H]1C(=O)N(CCCNC(=N)N)CC(=O)N1CCC[C@H]1C(=O)N1CCC[C@H]1C(=O)N[C@@H](Cc1cnc[nH]1)C(=O)N1CCC[C@H]1C(=O)N[C@@H](CCCNC(=N)N)C(=O)N[C@@H](CC(C)C)C(=O)O (H-GNNRPVYIPQP[Gly(N-(CH2)3-guanidino)]PPHPRL-OH) for me?
Reply: 2

Task item: Now the same for CC[C@H](C)[C@H](NC(=O)[C@H](Cc1ccc(O)cc1)NC(=O)[C@@H](NC(=O)[C@@H]1CCCN1C(=O)CN(CCCNC(=N)N)C(=O)[C@H](CC(N)=O)NC(=O)[C@H](CC(N)=O)NC(=O)CN)C(C)C)C(=O)N1CCC[C@H]1C(=O)N[C@@H](CCC(N)=O)C(=O)N1CCC[C@H]1C(=O)N[C@@H](CCCNC(=N)N)C(=O)N1CCC[C@H]1C(=O)N1CCC[C@H]1C(=O)N[C@@H](Cc1cnc[nH]1)C(=O)N1CCC[C@H]1C(=O)N[C@@H](CCCNC(=N)N)C(=O)N[C@@H](CC(C)C)C(=O)O (H-GNN[Gly(N-(CH2)3-guanidino)]PVYIPQPRPPHPRL-OH)
Reply: 0.06

Task item: Now the same for CC[C@H](C)[C@H](NC(=O)[C@H](Cc1ccc(O)cc1)NC(=O)[C@@H](NC(=O)[C@@H]1CCCN1C(=O)[C@H](CCCNC(=N)N)NC(=O)[C@H](CC(N)=O)NC(=O)[C@H](CC(N)=O)NC(=O)CN)C(C)C)C(=O)N1CCC[C@H]1C(=O)N[C@@H](CCC(N)=O)C(=O)N1CCC[C@H]1C(=O)N[C@@H](CCCNC(=N)N)C(=O)N1CCC[C@H]1C(=O)N1CCC[C@H]1C(=O)N[C@@H](Cc1cnc[nH]1)C(=O)N1CCC[C@H]1C(=O)N[C@@H](CCCNC(=N)N)C(=O)N[C@@H](CC(C)C)C(=O)O [APIDAECIN]
Reply: 1.19

Task item: Now the same for CC[C@H](C)[C@H](NC(=O)[C@H](Cc1ccc(O)cc1)NC(=O)[C@@H](NC(=O)[C@@H]1CCCN1C(=O)[C@H](CCCNC(=N)N)NC(=O)[C@H](CC(N)=O)NC(=O)[C@H](CC(N)=O)NC(=O)CN)C(C)C)C(=O)N1CCC[C@H]1C(=O)N[C@@H](CCC(N)=O)C(=O)N1CCC[C@H]1C(=O)N[C@@H](CCCNC(=N)N)C(=O)N1CCC[C@H]1C(=O)N1CCC[C@H]1C(=O)N[C@@H](Cc1cnc[nH]1)C(=O)N1CCC[C@H]1C(=O)N(CCNC(=N)N)CC(=O)N[C@@H](CC(C)C)C(=O)O (H-GNNRPVYIPQPRPPHP[X1]L-OH)
Reply: 0.62

* * *

- Tested on: Salmonella enterica subsp. enterica
- assay.protocol: Antimicrobial activity against Salmonella Typhimurium ATCC 14028 after 18 hrs by broth microdilution susceptibility test
- Assay type: functional, Salmonella enterica subsp. enterica serovar Typhimurium
- measurement.conditions: ATCC 14028, 18 h
Non-standard residues stand in square brackets, D forms with d. Residues, ends and D or L forms follow the SMILES beside them. NhArg = N=C(N)NCCCCNCC(=O)O
measurement.kind: MIC

Task item: Can you look up the measured MIC of CC[C@H](C)[C@H](NC(=O)[C@H](Cc1ccc(O)cc1)NC(=O)[C@@H](NC(=O)[C@@H]1CCCN1C(=O)[C@H](CCCNC(=N)N)NC(=O)[C@H](CC(N)=O)NC(=O)[C@H](CC(N)=O)NC(=O)CN)C(C)C)C(=O)N1CCC[C@H]1C(=O)N[C@@H](CCC(N)=O)C(=O)N1CCC[C@H]1C(=O)N(CCCCNC(=N)N)CC(=O)N1CCC[C@H]1C(=O)N[C@@H](Cc1cnc[nH]1)C(=O)N1CCC[C@H]1C(=O)N[C@@H](CCCNC(=N)N)C(=O)N[C@@H](CC(C)C)C(=O)O (H-GNNRPVYIPQP[NhArg]PHPRL-OH) for me?
Reply: 32 µM

Task item: Now the same for CC[C@H](C)[C@H](NC(=O)[C@H](Cc1ccc(O)cc1)NC(=O)[C@@H](NC(=O)[C@@H]1CCCN1C(=O)[C@H](CCCNC(=N)N)NC(=O)[C@H](CC(N)=O)NC(=O)[C@H](CC(N)=O)NC(=O)CN)C(C)C)C(=O)N1CCC[C@H]1C(=O)N[C@@H](CCC(N)=O)C(=O)N1CCC[C@H]1C(=O)N[C@@H](CCCNC(=N)N)C(=O)N1CCC[C@H]1C(=O)N[C@@H](Cc1cnc[nH]1)C(=O)N1CCC[C@H]1C(=O)N[C@@H](CCCNC(=N)N)C(=O)N[C@@H](CC(C)C)C(=O)O (H-GNNRPVYIPQPRPHPRL-OH)
Reply: > 128 µM
